TESTED_SYSTEM: UniProt:Q92560
Sequence (Q92560 whole entry, looked up): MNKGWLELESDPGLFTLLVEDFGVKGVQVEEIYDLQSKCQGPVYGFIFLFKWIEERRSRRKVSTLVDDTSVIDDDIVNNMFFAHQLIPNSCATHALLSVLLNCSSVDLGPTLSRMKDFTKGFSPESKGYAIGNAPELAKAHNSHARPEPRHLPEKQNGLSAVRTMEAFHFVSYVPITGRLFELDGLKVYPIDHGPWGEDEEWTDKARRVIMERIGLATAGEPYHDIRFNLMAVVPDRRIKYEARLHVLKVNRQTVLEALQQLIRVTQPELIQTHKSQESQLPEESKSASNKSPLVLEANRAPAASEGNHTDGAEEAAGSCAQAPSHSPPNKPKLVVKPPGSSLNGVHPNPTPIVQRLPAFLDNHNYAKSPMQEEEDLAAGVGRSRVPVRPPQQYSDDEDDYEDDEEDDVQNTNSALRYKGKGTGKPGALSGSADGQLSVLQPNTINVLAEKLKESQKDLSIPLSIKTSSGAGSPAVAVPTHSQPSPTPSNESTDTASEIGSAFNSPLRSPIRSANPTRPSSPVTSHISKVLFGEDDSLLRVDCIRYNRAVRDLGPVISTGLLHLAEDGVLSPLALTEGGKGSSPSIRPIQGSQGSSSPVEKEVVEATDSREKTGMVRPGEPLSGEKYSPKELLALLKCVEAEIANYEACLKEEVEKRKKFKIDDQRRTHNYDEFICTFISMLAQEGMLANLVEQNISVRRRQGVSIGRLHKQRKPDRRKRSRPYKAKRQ
TEST_SUMMARY: BAP1 inhibitor potency with two substrates, dose response, biochemical, Ub-AMC versus Ub-rhodamine substrates (AID 1068)
TEST_SETTINGS: recombinant BAP1, Ub-rhodamine hydrolysis fluorescence; measured here: Ub-AMC substrate assay
pIC50: −log10 of the molar value.
MEASUREMENT_NAME: pIC50

Cc1ccc(-c2c(C)sc(NC(=O)CSc3nnc(-c4ccc(Cl)cc4)o3)c2C#N)cc1C; 4.49
Cc1ccc(-c2c(C)sc(NC(=O)CSc3nnc(-c4ccc(F)cc4)o3)c2C#N)cc1C; 4.43
Cc1sc(NC(=O)CSc2nnc(-c3ccc(Cl)cc3)o2)c(C#N)c1C; 4.43
COc1cccc(NC(=O)c2ccccc2-c2nc(-c3ccc(Cl)cc3)no2)c1; 4.40

Ref: PubChem BioAssay AID1068
